Reported pIC50 values follow for various compounds
target: Human Recombinant MAO-B (Homo sapiens); test: Amine oxidase inhibition profile, MAO-B; assay type: biochemical; conditions: read-out: Recombinant MAO-B IC50
Sequence (P27338 whole entry): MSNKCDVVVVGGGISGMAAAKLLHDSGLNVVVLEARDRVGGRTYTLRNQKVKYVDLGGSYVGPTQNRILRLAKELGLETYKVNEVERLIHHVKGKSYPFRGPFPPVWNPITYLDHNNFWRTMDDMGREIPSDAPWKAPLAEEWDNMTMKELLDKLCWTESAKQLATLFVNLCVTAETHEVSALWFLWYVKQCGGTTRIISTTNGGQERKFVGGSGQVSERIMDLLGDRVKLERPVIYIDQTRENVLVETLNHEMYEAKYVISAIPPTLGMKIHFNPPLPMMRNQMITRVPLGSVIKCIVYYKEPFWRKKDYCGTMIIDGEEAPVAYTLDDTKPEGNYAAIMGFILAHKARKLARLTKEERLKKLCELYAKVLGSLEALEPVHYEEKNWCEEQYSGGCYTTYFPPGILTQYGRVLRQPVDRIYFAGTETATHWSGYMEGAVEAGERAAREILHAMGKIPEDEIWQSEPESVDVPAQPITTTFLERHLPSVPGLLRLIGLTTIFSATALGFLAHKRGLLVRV
pIC50: −log10 of the molar value.

Query string: Any idea what its pIC50 is? The compound is NC/C=C(\F)CS(=O)(=O)c1ccccc1 [PXS-4787]
Result string: < 4.00

Query string: Looking for the measured pIC50 of N#CCCN [BAPN, β-aminoproprionitrile, reference compound] , can you help?
Result string: < 4.00

* * *

biological target: recombinant human LOXL4 (Homo sapiens); construct: Dr. Fernando Rodríguez Pascual, university of Madrid, Spain (academic provider); test: Amplex Red oxidation assay, LOXL4 inhibition; type: biochemical; settings: 30 min pre-incubation; read-out: rh LOXL4 IC50
Sequence (Q96JB6 25-756): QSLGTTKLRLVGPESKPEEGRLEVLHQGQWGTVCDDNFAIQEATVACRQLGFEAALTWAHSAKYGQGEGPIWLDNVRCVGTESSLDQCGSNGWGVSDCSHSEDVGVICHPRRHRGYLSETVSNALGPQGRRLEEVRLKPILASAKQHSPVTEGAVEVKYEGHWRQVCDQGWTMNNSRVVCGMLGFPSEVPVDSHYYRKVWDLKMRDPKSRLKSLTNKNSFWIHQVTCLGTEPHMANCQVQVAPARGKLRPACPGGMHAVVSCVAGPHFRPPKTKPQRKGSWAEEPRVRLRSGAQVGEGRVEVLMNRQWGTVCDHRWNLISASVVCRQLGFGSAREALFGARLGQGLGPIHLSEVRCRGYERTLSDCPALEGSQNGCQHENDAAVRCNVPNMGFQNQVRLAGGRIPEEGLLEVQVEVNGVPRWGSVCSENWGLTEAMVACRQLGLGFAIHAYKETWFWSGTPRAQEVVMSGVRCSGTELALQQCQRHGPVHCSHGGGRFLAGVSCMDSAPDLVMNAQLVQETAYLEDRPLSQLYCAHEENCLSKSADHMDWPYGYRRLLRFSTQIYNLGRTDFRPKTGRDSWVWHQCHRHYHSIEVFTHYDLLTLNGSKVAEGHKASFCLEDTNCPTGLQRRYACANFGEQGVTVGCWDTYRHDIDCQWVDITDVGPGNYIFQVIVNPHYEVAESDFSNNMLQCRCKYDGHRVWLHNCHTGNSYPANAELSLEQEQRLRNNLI
observable: IC50 (µM)
All answers are understood in µM, so give the number only.

Here's what some known entries look like.
molecule | experimental target | u | result value
NC/C=C(\F)C(F)(F)S(=O)(=O)c1ccccc1 [PXS-6302] | recombinant human LOXL4 (Homo sapiens) | µM | 0.32
N#CCCN [BAPN, β-aminoproprionitrile, reference compound] | recombinant human LOXL4 (Homo sapiens) | µM | 0.28

Then this molecule:
Query string: Look at this molecule and give its reported IC50. NC/C=C(\F)CS(=O)(=O)c1ccccc1 [PXS-4787]
Result string: 0.22
